Protein target, amino acids: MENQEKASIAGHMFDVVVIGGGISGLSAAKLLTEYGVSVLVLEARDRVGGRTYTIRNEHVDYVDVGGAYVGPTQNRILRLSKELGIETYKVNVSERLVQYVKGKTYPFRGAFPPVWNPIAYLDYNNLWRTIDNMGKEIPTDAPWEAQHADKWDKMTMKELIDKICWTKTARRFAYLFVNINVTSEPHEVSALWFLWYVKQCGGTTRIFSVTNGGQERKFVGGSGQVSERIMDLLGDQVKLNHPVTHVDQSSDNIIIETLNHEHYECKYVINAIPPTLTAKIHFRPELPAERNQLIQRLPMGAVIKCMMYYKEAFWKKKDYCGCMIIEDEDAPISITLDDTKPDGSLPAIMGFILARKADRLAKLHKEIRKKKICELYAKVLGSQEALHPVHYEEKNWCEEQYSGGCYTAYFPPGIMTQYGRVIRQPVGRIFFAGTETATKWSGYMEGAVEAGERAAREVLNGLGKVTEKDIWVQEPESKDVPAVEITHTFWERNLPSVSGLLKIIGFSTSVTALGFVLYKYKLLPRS
Counter-ions that a name gives are not always drawn.
For each of the compounds below, state its IC50.

get_value(item= CC(C)N1CCC(N[C@@H]2C[C@H]2c2ccc(NC(=O)c3cccc(C(F)(F)F)c3)cc2)CC1 (relative stereo) [Example 112, dihydrochloride] , readout=IC50) returns > 10 µM

get_value(item= O=C(Nc1ccc([C@@H]2C[C@H]2NCCOCc2ccccc2)cc1)c1ccccc1 (relative stereo) , readout=IC50) returns 9.2 µM

get_value(item= O=C(Nc1ccc([C@@H]2C[C@H]2NC2CCS(=O)(=O)CC2)cc1)c1cccc(C(F)(F)F)c1 (relative stereo) [Example 151, hydrochloride] , readout=IC50) returns > 10 µM

get_value(item= O=C(Nc1ccc([C@@H]2C[C@H]2NCCOCc2ccccc2)cc1)c1ccc(-c2ccccc2)cc1 (relative stereo) , readout=IC50) returns > 10 µM

get_value(item= O=C(Nc1ccc([C@@H]2C[C@H]2NCC2CC2)cc1)C1CCCCC1 (relative stereo) [Example 141, hydrochloride] , readout=IC50) returns > 10 µM

get_value(item= O=C(Nc1ccc([C@@H]2C[C@H]2N2CCCC2)cc1)c1ccccc1 (relative stereo) [Example 30, hydrochloride] , readout=IC50) returns 1.7 µM

get_value(item= Cc1ccc(C(=O)Nc2ccc([C@@H]3C[C@H]3NCC3CC3)cc2)cc1 (relative stereo) [Example 68, hydrochloride] , readout=IC50) returns > 10 µM

get_value(item= O=C(Nc1ccc([C@@H]2C[C@H]2NCc2cn3ccsc3n2)cc1)c1cccc(C(F)(F)F)c1 (relative stereo) [Example 160, dihydrochloride] , readout=IC50) returns 5.1 µM

get_value(item= O=C(Nc1ccc([C@@H]2C[C@H]2NCC2CC2)cc1)c1ccc2[nH]ncc2c1 (relative stereo) , readout=IC50) returns > 10 µM

get_value(item= O=C(Nc1ccc([C@@H]2C[C@H]2NC2CCN(C3CC3)CC2)cc1)c1cccc(C(F)(F)F)c1 (relative stereo) [Example 111, dihydrochloride] , readout=IC50) returns > 10 µM

get_value(item= Cc1cc(NC(=O)c2ccccc2)ccc1[C@@H]1C[C@H]1NCC1CC1 (relative stereo) [Example 82, hydrochloride] , readout=IC50) returns > 10 µM

get_value(item= O=C(Nc1ccc([C@@H]2C[C@H]2NCC2CC2)cc1)c1ccc(-c2ccncc2)cc1 (relative stereo) , readout=IC50) returns > 10 µM

get_value(item= O=C(Nc1ccc([C@@H]2C[C@H]2NCC2CC2)cc1)c1cccc(-c2ncccn2)c1 (relative stereo) [Example 139, hydrochloride] , readout=IC50) returns 8.2 µM

Data credit: patent US9682925B2
